tested on: OVCAR-3 ovarian; assay: NCI-60 one-dose screen, 48 h; conditions: 10 µM unless noted
About 83,000 compounds went through this panel and 20% of them were active in at least one assay; those are over-represented in the sample as a whole. The source made the active and inactive calls. Rule for the calls: active = growth percent below 10; inactive = the rest.
Log the outcome using a class from y (active), n (inactive)

Example cases with answers are listed next.
Compound: Cc1nc2sc(C(=O)Nc3ccccc3)c(N)c2cc1C(C)O (configuration not stated)
Group: n

Compound: c1ccc2c3c([nH]c2c1)C(c1ccc(C2NCCc4c2[nH]c2ccccc42)cc1)NCC3 (configuration not stated)
Group: y

Compound: CC(=O)c1c(OCC#N)ccc2c(C)cc(=O)oc12
Group: n

Compound: O=C1CS/C(=N/c2nnc(-c3ccc(O)cc3)s2)N1
Group: n

Compound: C=C1C(=O)O[C@H]2[C@H]1CC/C(COC(=O)c1cccnc1)=C\CC[C@@]1(C)O[C@@H]21
Group: n

Compound: Oc1ccccc1-c1nc2c3ccccc3c3ccccc3c2o1
Group: n

Compound: C#C[C@@]1(O)[C@@H](CO)O[C@@H](n2cc(Cl)c3c(N)ccnc32)[C@@H]1O
Group: n

Compound: COc1ccc(C(=S)c2cc(OC)c(OC)c(OC)c2)cc1OC(=O)CCl
Group: y

Compound: CC[C@H](Nc1ncnc2nc[nH]c12)c1nc2cccc(CC(=O)c3ccc(C(=O)NO)cc3)c2c(=O)n1-c1ccccc1
Group: n

Compound: Oc1ccc(CNNc2ccnc3c(O)cccc23)c2cccnc12
Group: n

Challenge: // outcome(item) with item = O=C1[C@@H](OS(=O)(=O)CC(F)(F)F)[C@H](c2ccc(F)cn2)N1c1cc2c3ccccc3ccc2c2ccccc12
Response given: n

Challenge: Lookup CCN1CCC[C@H]1c1cc(O)c2c(c1OC)C[C@H]1C[C@H]3[C@H](N)C(=O)C(C(N)=O)=C(O)[C@@]3(O)C(=O)C1=C2O
Response given: y

Challenge: # repeat for COc1ccc(-c2nc(C#N)c(NCC(c3ccco3)N3CCCC3)o2)cc1 (configuration not stated)
Response given: n

---

system: U251 CNS; assay: NCI-60 one-dose screen, 48 h; details: 10 µM unless noted
This is part of a sample that, as a whole, favours compounds with a hit. Of some 83,000 tested, about 20% had one in any assay. Activity calls are given as the source filed them. How the source made its calls: active means growth percent below 10; inactive means the rest.
The categories you may choose from are yes (1) for active, no (0) for inactive

Reference set, count: 6
Compound: COC(=O)c1ccc2c(c1)NC(=O)[C@@H]1CCCN21
Group: no (0)
--
Compound: CCCCC(=O)Nc1c(C(=O)Nc2ccccc2)sc2nc3c(cc12)C(OC(=O)CCCC)CCC3 (configuration not stated)
Group: no (0)
--
Compound: C=C1C(=O)O[C@H]2[C@H]1CC/C(COC(=O)NCc1nc3ccccc3[nH]1)=C\CC[C@@]1(C)O[C@@H]21
Group: no (0)
--
Compound: COc1ccc(Sc2[nH]c(C(C)=O)c3ccccc23)cc1
Group: no (0)
--
Compound: CC(C)(C)c1nn(-c2ccccc2)c2c1COCN2Cc1ccc(Cl)cc1
Group: no (0)
--
Compound: CCCCc1nc(Cl)c(C2CC(c3ccc(Cl)cc3)=NN2c2cc(Cl)cc(Cl)c2)[nH]1 (configuration not stated)
Group: no (0)

Challenge: What did this assay record as the result for O=c1[nH]c2ccccc2cc1-c1nc2ccc(Cl)cc2[nH]1 ?
Response given: no (0)

Challenge: Subsequent entry: CSc1nc(-c2ccco2)c2c(N)[nH]nc2n1
Response given: no (0)

Challenge: Same thing, different compound: O=C1C(Cl)=C(NCCCN(CCCNC2=C(Cl)C(=O)c3ccccc3C2=O)C2=C(Cl)C(=O)c3ccccc3C2=O)C(=O)c2ccccc21
Response given: no (0)

Challenge: Then what about the compound COc1ccc2nc(-c3ccc(Cl)cc3)cc(-c3nnc(SCC(=O)Nc4ccc(/C(C)=N\O)cc4)o3)c2c1 ?
Response given: yes (1)

Challenge: Next compound up: O=C1c2ccccc2C(=O)c2c1oc1c2c(=O)[nH]c2ccc(Cl)cc21
Response given: yes (1)

Challenge: Try Cc1cccc(C)c1NCc1nnc(-c2ccco2)o1 next.
Response given: no (0)

Challenge: And for O=C(O)C(C(=O)O)c1cccc2ccccc12 ?
Response given: no (0)

Challenge: # repeat for CCSc1nc(Cl)c(C#N)c(-c2ccc(F)cc2)n1
Response given: no (0)

Challenge: Can you check CCOC(=O)c1c(C)nc2c(c1N)/C(=C/c1ccc[nH]1)C(=O)N2Cc1ccc(C(F)(F)F)cc1 next?
Response given: no (0)

Challenge: CC1CCN(CCCCCOc2ccc3oc4ccccc4c(=O)c3c2)CC1 , same question.
Response given: no (0)

This collection of values is drawn from PubChem BioAssay (NCI).
